# System: H3K9me2 in HCT116 cells
# assay explanation: HCT116 H3K9me2 in-cell western assay
# Type: cell-based
# assay context: Homo sapiens, HCT-116, 72 h, HCT116 cells, 72 hours incubation; read-out: H3K9me2 ICW IC50

compound	IC50
CNc1cc(C)nc(Nc2cc3c(c(C4=C[C@H]5CNC[C@H]5C4)c2)OCO3)n1	100 to 500 nM
CNc1nc(Nc2cc3c(c(C4=CCNCCC4)c2F)OCO3)nc(C)c1F	< 100 nM
CNc1cc(C)nc(Nc2cc3c(c(C4=CCNC(C)CC4)c2F)OCC3)n1 (single isomer, unassigned) [Compound 183]	< 100 nM
Cc1cc(NC2CCCC2)nc(Nc2cc3c(c(OCCCN4CCCC4)c2)OCC3)n1	> 2000 nM
CNc1cc(C)nc(Nc2cc3c(c(C4=CCNCC(O)C4)c2F)OCO3)n1 (single isomer, unassigned)	< 100 nM
CNc1cc(C)nc(Nc2cc3c(c(C4=CCNCC(F)C4)c2F)OCC3)n1 (single isomer, unassigned)	< 100 nM
[2H]C([2H])([2H])Nc1cc(C)nc(Nc2cc3c(c(C4=CCN(C)CCC4)c2)OCO3)n1	< 100 nM
CNc1cc(C)nc(Nc2cc3c(c(C4C[C@H]5CNC[C@H]5C4)c2F)OCC3)n1 (some centres unmarked)	100 to 500 nM

---

# tested on: human EHMT1 982-1266 (Homo sapiens)
# Sequence (Q9H9B1 982-1266): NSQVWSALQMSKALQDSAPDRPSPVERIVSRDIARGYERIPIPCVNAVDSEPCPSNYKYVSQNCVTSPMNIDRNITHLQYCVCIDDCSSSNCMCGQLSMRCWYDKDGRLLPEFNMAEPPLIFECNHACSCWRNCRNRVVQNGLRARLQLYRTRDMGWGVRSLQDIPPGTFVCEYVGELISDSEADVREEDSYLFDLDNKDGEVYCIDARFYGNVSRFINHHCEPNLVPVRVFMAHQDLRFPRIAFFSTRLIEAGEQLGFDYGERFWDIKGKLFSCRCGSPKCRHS
# assay explanation: EHMT1 enzyme assay on histone peptide substrate (3H-SAM SPA)
# assay context: EHMT1 IC50, recombinant human EHMT1 982-1266, histone peptide substrate
pIC50: −log10 of the molar value.
quantity kind: pIC50

compound	meas value
CNc1cc(C)nc(Nc2cc3c(c(C4=CCNCC(F)C4)c2F)OCC3)n1 (single isomer, unassigned) [Compound 168]	6.30 to 7.00
[2H]Cc1nc(Nc2cc3c(c(C4=CCNCCC4)c2)OCO3)nc(NCC([2H])([2H])[2H])c1F	6.30 to 7.00
[2H]Cc1nc(Nc2cc3c(c(C4=CCNCCC4)c2F)OCC3)nc(NC)c1F	> 7.00
CNc1cc(C)nc(Nc2cc3c(c(C4=CCC(N)CC4)c2F)OCC3)n1 (single isomer, unassigned) [Compound 436]	5.70 to 6.30
CNc1cc(C)nc(Nc2cc3c(c(C4=CCNCCC4)c2O)OCC3)n1	> 7.00
CNc1nc(Nc2cc3c(c(C4=CCNCCC4)c2)OCO3)nc(C)c1F	6.30 to 7.00
CNc1cc(C)nc(Nc2cc3c(c(C4=CCNC(CO)CC4)c2F)OCC3)n1 (single isomer, unassigned) [Compound 159]	> 7.00
CNc1cc(C)nc(Nc2cc3c(c(C4=CCNCCC4)c2C)OCCC3)n1	> 7.00
CNc1cc(C)nc(Nc2cc3c(c(C4CCCNCC4)c2)OCO3)n1 (centres unmarked)	6.30 to 7.00
[2H]C([2H])([2H])Nc1nc(Nc2cc3c(c(C4=CCN(C)CCC4)c2F)OCC3)nc(C)c1F	> 7.00
CNc1cc(C)nc(Nc2cc3c(c(C4C[C@H]5CNC[C@H]5C4)c2)OCCC3)n1 (some centres unmarked)	> 7.00
[2H]Cc1cc(NC([2H])([2H])[2H])nc(Nc2cc3c(c(C4=CCN(C)CCC4)c2F)OCC3)n1	> 7.00
CNc1cc(C)nc(Nc2cc3c(c(C4=CCNC(C)CC4)c2F)OCC3)n1 (single isomer, unassigned) [Compound 183]	> 7.00
[2H]C([2H])([2H])CNc1nc(Nc2cc3c(c(C4=CCN(C)CCC4)c2F)OCC3)nc(C)c1F	6.30 to 7.00
CNc1nc(Nc2cc3c(c(C4=CCN(C)CCC4)c2F)OCC3)nc(C)c1OC	6.30 to 7.00
[2H]C([2H])([2H])CNc1cc(C)nc(Nc2cc3c(c(C4=CCN(C)CCC4)c2)OCC3)n1	> 7.00
CCc1cc(NC)nc(Nc2cc3c(c(C4=CCNCCC4)c2)OCC3)n1	> 7.00
CNc1cc(C)nc(Nc2cc3c(c(C4C[C@H]5CNC[C@H]5C4)c2)OCCO3)n1 (some centres unmarked)	6.30 to 7.00
CNc1cc(C)nc(Nc2cc3c(c(N4CCNCC4)c2)OCC3)n1	< 5.70
CNc1cc(C2CCCCC2)nc(Nc2cc3c(c(OCCCN4CCCC4)c2)OCC3)n1	< 5.70
CNc1cc(C)nc(Nc2c(F)c3c(c(C4=CCNCCC4)c2F)OCC3)n1	> 7.00
CNc1cc(C)nc(Nc2cc3c(c(C4=CC(C)N(C)CCC4)c2F)OCC3)n1 (centres unmarked)	6.30 to 7.00
CNc1ccnc(Nc2cc3c(c(C4=CCN(C)CCC4)c2)OCC3)n1	> 7.00
CNc1cc(C)nc(Nc2cc3c(c(C4=CCNC(C)CC4)c2C)OCCO3)n1 (single isomer, unassigned)	6.30 to 7.00
CNc1cc(C)nc(Nc2cc3c(c(C4=CCNCCC4)c2F)OCC3C)n1 (single isomer, unassigned)	> 7.00
CNc1cc(C)nc(Nc2cc3c(c(C4=CCNCCC4)c2F)OCCO3)n1	> 7.00
